Give Pre-emergent Herbicidal Activity: Corn for every item shown.
system: Corn; assay: Pre-emergent herbicidal activity on crop plant; assay type: in vivo; conditions: Table B3; 30 g/ha; crop plant; rating 10=total damage, 0=no action
Numbers only.

Example cases with answers are listed next.
molecule	reported
COCc1nc(C(F)(F)F)ccc1C(=O)C1C(=O)C2CCC(C2)C1=O (centres unmarked)	1
COCCc1nc(C(F)(F)F)ccc1C(=O)C1C(=O)C2CCC(C2)C1=O (centres unmarked)	0
COCCCCc1nc(C(F)(F)F)ccc1C(=O)C1C(=O)C2CCC(C2)C1=O (centres unmarked)	0
COCCCc1nc(C(F)(F)F)ccc1C(=O)C1C(=O)C2CCC(C2)C1=O (centres unmarked)	0

Now for another entry.
GET /values?readout=Pre-emergent Herbicidal Activity: Corn&item= COC/C=C\c1nc(C(F)(F)F)ccc1C(=O)C1C(=O)C2CCC(C2)C1=O (centres unmarked) 0

----------
Would you mind telling me the reported Pre-emergence herbicidal action: Stellaria of each entry?
tested on: Stellaria; assay: Pre-emergence herbicidal action; assay type: in vivo; conditions: 250 g/ha; after 3 weeks; rating 10=total damage, 0=no action
One number for each entry.

# example entries with known answers
compound	target.or.test.system	reported
COCCCc1nc(C(F)(F)F)ccc1C(=O)C1C(=O)C2CCC(C2)C1=O (centres unmarked) [Compound H-14]	Stellaria	8
COCCCc1nc(C(F)F)ccc1C(=O)C1C(=O)C2CCC(C)(C2)C1=O (centres unmarked) [Compound H-1]	Stellaria	7
COCCCc1nc(C(F)(F)F)ccc1C(=O)C1C(=O)C2CCC(C)(C2)C1=O (centres unmarked) [Compound H-16]	Stellaria	8
COCCCc1nc(C(F)F)ccc1C(=O)C1C(=O)C2CCC(CC2)C1=O (centres unmarked) [Compound H-4]	Stellaria	7
CCOCCCc1nc(C(F)(F)F)ccc1C(=O)C1C(=O)C2CCC(C2)C1=O (centres unmarked) [Compound H-15]	Stellaria	10

Would you mind giving Pre-emergence herbicidal action: Stellaria for every compound in the list below?
1. COCCCc1nc(C(F)F)ccc1C(=O)C1C(=O)C2CCCC(C2)C1=O (centres unmarked) [Compound H-21]
2. COCCCc1nc(C(F)F)ccc1C(=O)C1C(=O)C2CCC(C2)C1=O (centres unmarked) [Compound H-3]
3. COCCCc1nc(C(F)(F)Cl)ccc1C(=O)C1C(=O)C2CCC(C2)C1=O (centres unmarked) [Compound H-9]

1: 10; 2: 8; 3: 7

----------
tested on: Brachiaria; assay: Pre-emergent herbicidal activity; format: in vivo; settings: Table B3; 30 g/ha; rating 10=total damage, 0=no action
Parameter threshold = 6. Response is 1 when Pre-emergent Herbicidal Activity: Brachiaria meets or exceeds it, else -1.

For orientation, consider the following solved cases.
molecule	class.assignment
COC/C=C\c1nc(C(F)(F)F)ccc1C(=O)C1C(=O)C2CCC(C2)C1=O (centres unmarked) [C]	-1
COCCCc1nc(C(F)(F)F)ccc1C(=O)C1C(=O)C2CCC(C2)C1=O (centres unmarked) [Compound H-14]	1
COCc1nc(C(F)(F)F)ccc1C(=O)C1C(=O)C2CCC(C2)C1=O (centres unmarked) [B]	1

Here is another molecule to look at.
// inclusive: Pre-emergent Herbicidal Activity: Brachiaria at least 6? input: COCCc1nc(C(F)(F)F)ccc1C(=O)C1C(=O)C2CCC(C2)C1=O (centres unmarked) [A] 1
